Below, each of the binders is paired with its reported IC50 value.
Biological target: extracellular domain (ECD) of the IL-5 receptor α chain, soluble (human) (UniProt Q01344)
Assay: competition with [125I] IL-5 on immobilised soluble IL-5Rα; grade ++ = IC50 of 500 nm or less

[
  {
    "binder": "DGYVCVEWARCPMCT [peptide … (SEQ ID NO:8)]",
    "measurement": "< 500 nM"
  },
  {
    "binder": "DGYVCVEWARCPTCK [peptide … (SEQ ID NO:7)]",
    "measurement": "< 500 nM"
  }
]

With those in mind, consider the next binder.
Request: Given DGFVCVEWARCPNCR [peptide … (SEQ ID NO:9)] , state its recorded IC50.
Response: < 500 nM
